Measured inhibition by item
test: inhibitors of TNFa-induced NFkB p65 translocation, primary screen, imaging, HUVEC, MLSMR starter and 10KST1 sets (AID 438);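 further: compound added about 3h40 before a 20 min TNFalpha stimulation; signal is the nuclear over cytoplasmic p65 intensity ratio per well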
condition_label: HUVEC TNFa-induced p65 nuclear translocation; at 2 µM, stronger effect = higher value, 0% TNFa-plus-vehicle, 100% no-TNFa wells
metric_name: inhibition (%)

>>> reading("Cn1c(C(=O)NCCC2=CCCCC2)cc2c(=O)n3ccccc3nc21")
31.6
>>> reading("CCNS(=O)(=O)c1ccc(S(=O)(=O)N(Cc2ccccn2)C2CCCCC2)cc1")
3.8
>>> reading("CCn1c(SC)nc2c(c1=O)SC(C)C2 (stereo unspecified)")
-4.9
>>> reading("O=C1C/C(=C/NCc2ccccc2)C(=O)N1")
-7.4
>>> reading("CC1(C(=O)NC2CCCCC2)CCC(=O)N1Cc1cccs1 (stereo unspecified)")
-0.6
>>> reading("O=C(CCCN1C(=O)c2ccccc2C1=O)NCc1cccnc1")
-7.1

---

assayed_system: Alpha-2C adrenergic receptor (Homo sapiens) (UniProt P18825)
Sequence (P18825 whole entry, looked up): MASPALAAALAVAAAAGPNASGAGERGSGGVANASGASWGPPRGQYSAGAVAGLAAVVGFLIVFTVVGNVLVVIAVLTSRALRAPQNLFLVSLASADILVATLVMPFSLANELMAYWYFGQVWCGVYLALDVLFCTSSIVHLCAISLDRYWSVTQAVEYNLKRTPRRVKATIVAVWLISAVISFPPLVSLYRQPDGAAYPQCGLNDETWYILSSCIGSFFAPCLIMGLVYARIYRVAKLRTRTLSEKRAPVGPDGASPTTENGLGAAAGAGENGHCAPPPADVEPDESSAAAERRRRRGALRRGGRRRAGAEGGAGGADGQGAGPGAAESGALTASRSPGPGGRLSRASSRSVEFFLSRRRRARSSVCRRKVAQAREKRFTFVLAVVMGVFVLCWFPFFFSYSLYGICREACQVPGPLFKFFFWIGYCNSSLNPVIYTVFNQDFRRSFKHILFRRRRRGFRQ
test: compounds altering alpha2C-coupled GIRK flux – cell-based, HEK293 alpha2C/GIRK1/2, thallium flux, primary screen (AID 624);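 further: slope of fluorescence ratio to pre-addition baseline per second over 15 to 24 s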
condition_label: thallium flux BTC fluorescence, at 10 µM, actives lie on both sides
metric_name: slope

>>> reading("COc1ccc(C)cc1NC(=O)c1nnn(Cc2cccc(F)c2)c1N")
0.00668
>>> reading("O=C(Nc1ccc(O)cc1)C1CCCN1S(=O)(=O)c1ccc(F)cc1 (stereo not drawn)")
0.00664
>>> reading("CO/C([O-])=N/c1c[n+](-c2ccc(C)cc2)no1")
0.00685
>>> reading("CCOc1ccc2c(c1)n(CO)c(=S)n2CO")
0.00378
>>> reading("O=C1NC(c2ccccc2)(C(F)(F)F)SC2=CCCCCN12 (stereo not drawn)")
0.00583
>>> reading("CCOC(=O)c1cc(CC)sc1NC(=O)COC")
0.00509
>>> reading("Cc1nc2ccccc2nc1OCC(=O)Nc1cc(C(F)(F)F)ccc1N1CCOCC1")
0.00495
>>> reading("Cc1ccc(OCC2Cn3c(nc4c3c(=O)n(C)c(=O)n4C)O2)cc1 (stereo not drawn)")
0.00486
>>> reading("O=C(CSc1nc2cc(Cl)ccc2s1)N1CCN(C(=O)c2ccco2)CC1")
0.00555
>>> reading("Cn1c(=O)[nH]c(=O)c2c1nc(N1CCOCC1)n2CC(O)COc1ccc2ccccc2c1 (stereo not drawn)")
0.00556
>>> reading("O=C(NC1CCS(=O)(=O)C1)OC1CCCCC1 (stereo not drawn)")
0.0056
>>> reading("CC(=O)Nc1cccc(NC(=O)CSc2nn3c(=O)c(C)nnc3s2)c1")
0.00534
>>> reading("CCc1nnc(NC(=O)CSc2nnc(-c3ccccc3OC)n2-c2ccccc2)s1")
0.00574
>>> reading("CCOC(=O)N1CCN(Cc2nc3c(c(=O)[nH]c(=O)n3C)n2Cc2cc(C)ccc2C)CC1")
0.00433
>>> reading("CCOCC(O)CS(=O)Cc1ccccc1 (stereo not drawn)")
0.00589
>>> reading("O=C(COC(=O)c1cnccn1)Nc1ccc2c(c1)OCO2")
0.00566
>>> reading("Cc1onc(-c2c(F)cccc2Cl)c1C(=O)Nc1nc2c(s1)CCCC2")
0.00615
>>> reading("O=C1C2C3C=CC(C3)C2C(=O)N1Cc1ccccc1 (stereo not drawn)")
0.00345
>>> reading("Cc1cc2ccccc2n1CCNC(=O)c1ccc(S(=O)(=O)N2CCOCC2)cc1")
0.00522
>>> reading("CC(=O)N1CCc2cc(S(=O)(=O)NCCC(=O)Nc3cc(C)cc(C)c3)ccc21")
0.00432
>>> reading("O=C1COc2ccc(C(=O)COC(=O)CCc3ccc(S(=O)(=O)N4CCOCC4)cc3)cc2N1")
0.00618
>>> reading("CCOc1ccccc1C(=O)NCC(=O)OCC(=O)N1C(C)CCCC1C (stereo not drawn)")
0.00593
>>> reading("CCCCOC(=O)c1cccc(NC(=O)CC)c1")
0.00523

---

Measured inhibition of aggregation by item
test: reduction of polyQ htt aggregates in cells – imaging, exon1htt(103Q)mCFP cells, high-content imaging, primary screen (AID 483);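 further: compound exposure lasted 3 days before fixation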
condition_label: exon1htt(103Q)mCFP cell line, aggregate imaging, at 2 µM; stronger effect = higher value
metric_name: inhibition of aggregation (%)

>>> reading("CC(=O)Nc1ccc(S(=O)(=O)N2CCSC2c2ccccc2)cc1 (stereo unspecified)")
-8.7
>>> reading("Cc1ccc(N(C(=O)C2CCC(=O)N2)C2(C(=O)NC3CCCCC3)CCCCC2)cc1 (stereo unspecified)")
22.8
>>> reading("CC(=O)c1ccc(NC(=O)CCc2c(C)nc3ncnn3c2C)cc1")
11.4
>>> reading("O=C(O)c1oc2ccccc2c1-n1cccc1")
10.7
>>> reading("COc1cccc2c(=O)cc(C)n(CC(=O)Nc3ccc(C)c(C)c3)c12")
-8.4
>>> reading("COc1cccc(CN(C(=O)c2cc3ccccc3oc2=O)C2CC2)c1")
-16

---

test: endothelial E-selectin expression blockers – imaging, HUVEC, immunofluorescence, MLSMR starter and 10KST1 sets, primary screen (AID 487);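 on inhibition: signal is fraction of cell area covered by stained E-selectin grains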
condition_label: HUVEC TNFalpha-induced E-selectin immunofluorescence imaging, at 2 µM; stronger effect = higher value
metric_name: inhibition (%)

>>> reading("CN(C)c1ccc(/C=C/C(O)=C2/C(=O)N(C)C3(C)CC2c2ccccc2O3)cc1 (stereo unspecified)")
-68
>>> reading("COc1ccc(S(=O)(=O)N2CCCC2C(=O)Nc2ccc(O)cc2)cc1 (stereo unspecified)")
-23.4
>>> reading("O=C(CC(CC(=O)c1ccccc1)C(=O)O)c1ccccc1")
-52.5
>>> reading("C[C@H](NC(=O)Nc1cccc(C(F)(F)F)c1)C(=O)O")
-1.7
>>> reading("COc1ccc(S(=O)(=O)NCCCN2CCOCC2)c2ccccc12")
-82.6
>>> reading("Cn1c(=O)c2c(nc(NCCCO)n2Cc2cccc(Br)c2)n(C)c1=O")
25.3
>>> reading("CCn1c(SCC(=O)Nc2ccc3c(c2)OCO3)nnc1-c1cnccn1")
-72.2
>>> reading("c1ccc(-n2nnnc2OCCOc2nnnn2-c2ccccc2)cc1")
-5.3
>>> reading("CCCN1C(=O)c2cc(C(=O)O)ccc2C1O (stereo unspecified)")
-95.2
>>> reading("CC1CCCCC1NC(=O)COc1ccc(-n2cnnn2)cc1 (stereo unspecified)")
-175
>>> reading("Cc1cc(C(=O)COC(=O)CCc2nc3ccccc3s2)c(C)n1C")
-16

---

Measured nuclei count by item
test: endothelial E-selectin expression blockers – imaging, HUVEC, immunofluorescence, MLSMR starter and 10KST1 sets, primary screen (AID 487);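 on nuclei count: 100% = median nuclei count of all wells on the same plate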
condition_label: HUVEC TNFalpha-induced E-selectin immunofluorescence imaging, at 2 µM; measured here: cell number, toxicity
metric_name: nuclei count (%)

>>> reading("CCOC(=O)c1c(NC(=O)CSc2nnc(-c3cccnc3)o2)sc(C)c1C")
98.1
>>> reading("COc1ccc(N2C(=O)C3C4C=CC(C4)C3C2=O)nn1 (stereo unspecified)")
142
>>> reading("COc1cc(C2c3c(n[nH]c3C)C(=O)N2c2ccc(C)cc2)ccc1O (stereo unspecified)")
112
>>> reading("COC(=O)C1=CN(C)C=C(C(=O)OC)C1c1ccc(O)c(OC)c1")
103
>>> reading("Cc1cc(C(=O)N2CCCc3ccccc32)no1")
89.2
>>> reading("Cc1cccc(N2CCN(C(=O)Cn3ccc4ccccc4c3=O)CC2)c1C")
94

---

Measured nuclei count by item
test: endothelial E-selectin expression blockers – imaging, HUVEC, immunofluorescence, MLSMR starter and 10KST1 sets, primary screen (AID 487);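 on nuclei count: 100% = median nuclei count of all wells on the same plate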
condition_label: HUVEC TNFalpha-induced E-selectin immunofluorescence imaging, at 2 µM; measured here: cell number, toxicity
metric_name: nuclei count (%)

>>> reading("NC(=O)C1CCN(C(=O)c2cc3n(n2)C(C(F)(F)F)CC(c2ccco2)N3)CC1 (stereo unspecified)")
100
>>> reading("COC(=O)c1ccccc1NC(=O)c1cnc2sccn2c1=O")
98
>>> reading("O=S(=O)(Nc1cccnc1)c1ccc2c(c1)OCCO2")
92
>>> reading("COCCNC(=O)c1cc2c(-c3ccccc3F)nn(C)c2s1")
120
>>> reading("CC12CN3CC(C)(CN(C1)C3c1ccc(Br)cc1)C2 (stereo unspecified)")
96.1
>>> reading("COc1cccc(C2=NOC(C(=O)Nc3cc(C)nn3-c3ccccc3)C2)c1OC (stereo unspecified)")
107
>>> reading("Cc1cc(NC(=O)CSc2nc(C3CCCCC3)nc3ccccc23)no1")
106
>>> reading("Cc1ccc(Nc2nc(Oc3ccc(=O)[nH]n3)nc(N(C)C)n2)cc1")
111
>>> reading("CCCN(CCC)c1nc2ccccc2n2c(C)nnc12")
102
>>> reading("O=C(CN(CC1CCCO1)S(=O)(=O)c1ccc(S(=O)(=O)NC2CC2)cc1)Nc1ccccc1 (stereo unspecified)")
96.1
>>> reading("CCOC(=O)c1cc(CC)sc1NC(=O)COC")
80
